The values you see were collected from patent US10407430B2.

biological target: Human JAK1 (Homo sapiens, UniProt P23458); construct: purchased Millipore, Germany; assay: In-vitro kinase inhibition test, JAK1; type: biochemical; settings: compound at 1 uM; read-out: JAK1 kinase-phosphorylation inhibitory level (% inhibition)
Sequence (P23458 whole entry): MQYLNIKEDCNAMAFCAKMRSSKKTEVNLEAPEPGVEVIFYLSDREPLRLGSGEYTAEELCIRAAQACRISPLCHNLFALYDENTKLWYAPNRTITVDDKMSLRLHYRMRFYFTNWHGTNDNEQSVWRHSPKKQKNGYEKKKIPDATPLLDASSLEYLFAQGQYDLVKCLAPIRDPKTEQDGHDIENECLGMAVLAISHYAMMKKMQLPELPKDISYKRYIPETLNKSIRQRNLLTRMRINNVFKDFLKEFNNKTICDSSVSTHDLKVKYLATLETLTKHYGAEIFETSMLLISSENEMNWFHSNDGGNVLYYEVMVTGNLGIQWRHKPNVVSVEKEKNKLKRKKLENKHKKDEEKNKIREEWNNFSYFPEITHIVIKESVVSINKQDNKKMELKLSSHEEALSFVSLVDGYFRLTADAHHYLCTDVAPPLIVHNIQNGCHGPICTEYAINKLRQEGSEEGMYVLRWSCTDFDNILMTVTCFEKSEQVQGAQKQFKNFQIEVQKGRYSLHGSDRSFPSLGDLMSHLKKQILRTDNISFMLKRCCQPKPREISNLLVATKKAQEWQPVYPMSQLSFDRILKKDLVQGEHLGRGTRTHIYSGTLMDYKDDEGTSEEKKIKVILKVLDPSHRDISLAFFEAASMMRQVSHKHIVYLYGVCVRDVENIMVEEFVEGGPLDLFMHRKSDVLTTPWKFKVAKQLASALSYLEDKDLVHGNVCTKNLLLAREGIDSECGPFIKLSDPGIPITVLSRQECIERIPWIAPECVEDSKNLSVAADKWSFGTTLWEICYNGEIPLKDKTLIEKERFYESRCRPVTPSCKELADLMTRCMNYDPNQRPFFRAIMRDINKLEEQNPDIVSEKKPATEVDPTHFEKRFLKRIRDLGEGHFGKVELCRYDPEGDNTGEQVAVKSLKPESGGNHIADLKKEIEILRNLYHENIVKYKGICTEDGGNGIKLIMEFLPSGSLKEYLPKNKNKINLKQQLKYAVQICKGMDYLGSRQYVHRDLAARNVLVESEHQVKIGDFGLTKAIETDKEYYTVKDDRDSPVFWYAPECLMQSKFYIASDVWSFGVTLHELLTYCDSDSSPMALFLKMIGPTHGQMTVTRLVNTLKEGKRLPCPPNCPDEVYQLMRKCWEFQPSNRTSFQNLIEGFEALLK
PROPERTY_MEASURED: inhibition at 1 µM (%)
Entry rule: numbers only, all in %.

[Q] Param readout = inhibition at 1 µM; param system = Human JAK1 (Homo sapiens, UniProt P23458); param query = C[C@@H]1CCN(S(=O)(=O)c2cccc(C#N)c2)C[C@@H]1N(C)c1ncnc2[nH]ccc12 [Example 42] ; response: value
[A] 95

[Q] Param readout = inhibition at 1 µM; param system = Human JAK1 (Homo sapiens, UniProt P23458); param query = CN(c1ncnc2[nH]ccc12)[C@@H]1CCN(S(C)(=O)=O)C1 [Example 8] ; response: value
[A] 91

[Q] Param readout = inhibition at 1 µM; param system = Human JAK1 (Homo sapiens, UniProt P23458); param query = Cc1ccc(S(=O)(=O)N2CC[C@@H](N(C)c3ncnc4[nH]ccc34)C2)cc1 [Example 25] ; response: value
[A] 97
